Source listed as ChEMBL document CHEMBL4229544.

Test system: HepG2
TEST_METHOD_NOTES: Cytotoxicity against human HepG2 cells after 24 hrs by CellTiter-Glo assay
Assay type: cell-based
PROTOCOL_CONDITIONS: HepG2, 24 h
So I've got a bunch of compounds here, and I need their IC50 values.

Request: Please report the recorded IC50 for CNc1cc(F)cc2c1[nH]c1nc(CNC(=O)c3cnco3)nc(N3CCC(N(C)C)C3)c12 (stereo not given) .
Response: > 16 µg/mL

Request: Repeat with CNc1cc(F)cc2c1[nH]c1nc(CNC(=O)c3cnco3)nc(N3CCC(NC)C3)c12 (stereo not given)
Response: > 32 µg/mL

# batch size: 2; output IC50 per entry
1. CNc1cc(F)cc2c1[nH]c1nc(CNC(=O)c3cnco3)nc(N3CCC(N)C3)c12 (stereo not given)
2. CNc1cc(F)cc2c1[nH]c1nc(CNC(=O)c3cocn3)nc(N3CCC(N)C3)c12 (stereo not given)

Response:
> 16 µg/mL
10.8 µg/mL

Request: Please report the recorded IC50 for `CO[C@@H]1[C@@H](OC(N)=O)[C@@H](O)[C@H](Oc2ccc3c(O)c(NC(=O)c4ccc(O)c(CC=C(C)C)c4)c(=O)oc3c2C)OC1(C)C` .
Response: > 32 µg/mL
